- TESTED TARGET: Cannabinoid receptor 1 (Homo sapiens)
- Sequence (P21554 whole entry): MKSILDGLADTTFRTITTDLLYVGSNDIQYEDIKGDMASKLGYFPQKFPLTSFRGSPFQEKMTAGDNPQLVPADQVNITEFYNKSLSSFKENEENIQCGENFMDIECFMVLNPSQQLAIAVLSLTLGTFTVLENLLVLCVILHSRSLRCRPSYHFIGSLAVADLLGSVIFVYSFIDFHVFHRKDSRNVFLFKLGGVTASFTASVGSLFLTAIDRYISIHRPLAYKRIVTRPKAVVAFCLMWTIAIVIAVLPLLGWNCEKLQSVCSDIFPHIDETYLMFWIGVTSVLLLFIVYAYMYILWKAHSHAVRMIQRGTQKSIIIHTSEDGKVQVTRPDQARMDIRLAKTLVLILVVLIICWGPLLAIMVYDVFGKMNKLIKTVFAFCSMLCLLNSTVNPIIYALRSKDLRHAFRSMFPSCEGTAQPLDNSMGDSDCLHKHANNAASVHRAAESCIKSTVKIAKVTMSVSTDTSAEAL
- ASSAY COMMENT: Inverse agonist activity at human cannabinoid receptor 1 expressed in HEK293 cells assessed as increase in forskolin-induced cAMP production preincubated with cells followed by forskolin stimulation measured after 30 mins in presence of D2-labeled cAMP and Eu3+-TBP-NHS cryptate by HTRF assay
The reader will find reported EC50 values listed item by item below.
Answer format: numeric, nM implied, no suffix.

C[C@@H](NC(=O)c1nn(-c2ccc(Cl)cc2Cl)c2c1CCC/C2=C\c1ccc(Cl)cc1)c1ccccn1 :: 30
C[C@@H](NC(=O)c1nn(-c2ccc(Cl)cc2Cl)c2c1CCC/C2=C\c1ccc(F)cc1)c1ccccn1 :: 4
C[C@@H](NC(=O)c1nn(-c2ccc(Cl)cc2Cl)c2c1CCCC/C2=C\c1ccc(Cl)cn1)c1ccccn1 :: 4
C[C@@H](NC(=O)c1nn(-c2ccc(C(F)(F)F)cc2Cl)c2c1CCCC/C2=C\c1ccc(Cl)s1)c1ccccn1 :: 8
C[C@@H](NC(=O)c1nn(-c2ccc(Cl)cc2Cl)c2c1CCC/C2=C\c1ccc(Cl)s1)c1ccccn1 :: 35

Request: Indicate the recorded EC50 value for this compound: C[C@@H](NC(=O)c1nn(-c2ccc(Cl)c(Cl)c2)c2c1CCCC/C2=C\c1ccc(F)cc1)c1ccccn1
Result: 35

Request: State, in one line, measured EC50 of O=C(NC1CCN(c2ccccn2)CC1)c1nn(-c2ccc(Cl)cc2Cl)c2c1CCC/C2=C\c1ccc(Cl)cc1
Result: 34

Request: Indicate the recorded EC50 value for this compound: C[C@@H](NC(=O)c1nn(-c2ccc(Cl)cc2Cl)c2c1CCCC/C2=C\c1ccc(Cl)cc1)c1ccccn1
Result: 7

Source listed as ChEMBL document CHEMBL3862000.
